Record form. Attribute: IC50. Fill in for each entry.
Assay: blockers of CRF-binding protein–CRF-R2 complex – cell-based, uHTS hits, 384-well, dose response (AID 651639)
Assay type: functional, Homo sapiens
Settings: read-out: IC50_Mean
Activity calls are given as the source filed them. Cut-off read from the data, not from the text of the source: actives have a measured value and inactives only a lower limit.

Request the reported IC50 associated with `Cc1cc([N+](=O)[O-])ccc1NCc1ccc2c(c1)OCCO2`
19.9 µM (active)

Need IC50, item `Cc1c(NS(=O)(=O)c2ccccc2)ccc([N+](=O)[O-])c1Cl`
13.2 µM (active)

Field request: IC50 | item: `COc1cc(CCc2ccccc2)c(C(=O)O)c(O)c1C/C=C(/C)CCC=C(C)C`
3.79 µM (active)

Returns the measured IC50 for the input molecule. Input: `O=C(Nc1cccc(F)c1)c1coc(=O)c(Br)c1`
12.4 µM (active)
